ASSAY INFO: molar heat capacity at constant pressure
MEASUREMENT CONDITIONS: 288 K; 101.33 kPa; Crystal 2; Large sample (1 g) DSC
Exercise: for every item that follows, state its recorded molar heat capacity at constant pressure.
Give bare numbers, in J/K/mol.

For orientation, consider the following solved cases.
CCCCCCCCCCCCCCCC(N)=O [hexadecanamide] | 378.1
CCCCCCCC(N)=O [octanamide] | 244.9
CCCCCCCCCC(N)=O [decanamide] | 266.4

-- ask What value of molar heat capacity at constant pressure has been reported for the following compound? CCCCC(N)=O [pentanamide]
-- reply 188.4

---

ASSAY INFO: molar heat capacity at constant pressure
MEASUREMENT CONDITIONS: 303 K; 101.33 kPa; Crystal 2; Large sample (1 g) DSC
Exercise: for every item that follows, state its recorded molar heat capacity at constant pressure.
One number for each entry, in J/K/mol.

CCCCCCCCCCCCCCCC(N)=O [hexadecanamide] | 401.8
CCCCCCCCCC(N)=O [decanamide] | 278.5
CCCCCCCC(N)=O [octanamide] | 246.7

-- ask What value of molar heat capacity at constant pressure has been reported for the following compound? CCCCC(N)=O [pentanamide]
-- reply 192.6

---

Exercise: for every item that follows, state its recorded molar heat capacity at constant pressure.
ASSAY INFO: molar heat capacity at constant pressure
MEASUREMENT CONDITIONS: 283 K; 101.33 kPa; Crystal 2; Large sample (1 g) DSC
Answers are plain numbers, in J/K/mol.

Please give molar heat capacity at constant pressure for each item listed below.
1. CCCCC(N)=O [pentanamide]
2. CCCCCCCCCCCCCCCC(N)=O [hexadecanamide]
3. CCCCCCCC(N)=O [octanamide]

-- reply
188.4
371.6
243.9

-- ask What value of molar heat capacity at constant pressure has been reported for the following molecule? CCCCCCCCCC(N)=O [decanamide]
-- reply 260.7

---

ASSAY INFO: molar heat capacity at constant pressure
MEASUREMENT CONDITIONS: 258 K; 101.33 kPa; Crystal 2; Large sample (1 g) DSC
± gives the expanded uncertainty stated by the source.
MEASURED ENDPOINT: molar heat capacity at constant pressure

Please give molar heat capacity at constant pressure for each item listed below.
1. CCCCCCCCCCCCCCCC(N)=O [hexadecanamide]
2. CCCCCCCC(N)=O [octanamide]
3. CCCCCCCCCCCC(N)=O [dodecanamide]
4. CCCCC(N)=O [pentanamide]
5. CCCCCCCCCCCCCCCCCC(N)=O [octadecanamide]

-- reply
331.6 ± 5.4 J/K/mol
236.1 ± 3.8 J/K/mol
274.3 ± 4.3 J/K/mol
196.2 ± 3 J/K/mol
403.2 ± 6.3 J/K/mol

---

ASSAY INFO: molar heat capacity at constant pressure
MEASUREMENT CONDITIONS: 253 K; 101.33 kPa; Crystal; Large sample (1 g) DSC
Exercise: for every item that follows, state its recorded molar heat capacity at constant pressure.
Give bare numbers, in J/K/mol.

For orientation, consider the following solved cases.
CCCCCCCCCCCCCCCCCCCCCC(N)=O [docosanamide] | 470.1
CCCC(N)=O [butanamide] | 127.4
CC(C)C(N)=O [2-methylpropanamide] | 132.6

--- query ---
-- ask What value of molar heat capacity at constant pressure has been reported for the following compound? CC(C)(C)C(N)=O [2,2-dimethylpropanamide]
-- reply 144.5
